Test system: S. aureus (CCUG 10778)
Type: cell-based, Staphylococcus aureus
Residues, ends and D or L forms follow the SMILES beside them.
MEASURE NAME: MIC, S. aureus

For CC[C@H](C)[C@H](N)C(=O)N[C@@H](CC(C)C)C(=O)N[C@@H](CCCNC(=N)N)C(=O)N[C@@H](Cc1c[nH]c2ccccc12)C(=O)N1CCC[C@H]1C(=O)N[C@@H](Cc1c[nH]c2ccccc12)C(=O)N[C@@H](Cc1c[nH]c2ccccc12)C(=O)N1CCC[C@H]1C(=O)N[C@@H](Cc1c[nH]c2ccccc12)C(=O)N[C@@H](CCCNC(=N)N)C(=O)N[C@@H](CCCNC(=N)N)C(=O)N[C@@H](CCCCN)C(N)=O [Omiganan, reference compound] (H-ILRWPWWPWRRK-NH2) , what is its reported MIC, S. aureus?
4 to 8 µM

----------
Tested on: S. aureus (CCUG 10778)
Assay type: cell-based, Staphylococcus aureus
Residues, ends and D or L forms follow the SMILES beside them.
MEASURE NAME: MIC, S. aureus (µM)
Give the value in µM but do not write µM after it.

For N=C(N)NCCC[C@H](NC(=O)[C@@H](N)CCCNC(=N)N)C(=O)N1CCC[C@H]1C(=O)N[C@@H](CCCNC(=N)N)C(=O)N1CCC[C@H]1C(=O)N[C@@H](CCCNC(=N)N)C(=O)N1CCC[C@H]1C(=O)N[C@@H](CCCNC(=N)N)C(=O)N1CCC[C@H]1C(=O)N[C@@H](Cc1c[nH]c2ccccc12)C(=O)N[C@@H](Cc1c[nH]c2ccccc12)C(=O)N[C@@H](Cc1c[nH]c2ccccc12)C(=O)N[C@@H](Cc1c[nH]c2ccccc12)C(=O)N[C@@H](Cc1c[nH]c2ccccc12)C(N)=O [R9W5] (H-RRPRPRPRPWWWWW-NH2) , what is its reported MIC, S. aureus?
16

Then what about the compound N=C(N)NCCC[C@H](NC(=O)[C@@H](N)CCCNC(=N)N)C(=O)N1CCC[C@H]1C(=O)N[C@@H](CCCNC(=N)N)C(=O)N1CCC[C@H]1C(=O)N[C@@H](CCCNC(=N)N)C(=O)N1CCC[C@H]1C(=O)N[C@@H](CCCNC(=N)N)C(=O)N1CCC[C@H]1C(=O)N[C@@H](Cc1c[nH]c2ccccc12)C(=O)N[C@@H](Cc1c[nH]c2ccccc12)C(=O)N[C@@H](Cc1c[nH]c2ccccc12)C(=O)N[C@@H](Cc1c[nH]c2ccccc12)C(N)=O [R9W4] (H-RRPRPRPRPWWWW-NH2) ?
8
